These data points were gathered from patent US20260193293A1.

TEST_SYSTEM: Sushi domains (SD1/2) protein
PROTOCOL: Fluorescence polarization (FP) competition assay with AJAP-1probe, calculated Ki
Format: binding
MEASUREMENT_SETUP: Table 1, affinity maturation; mean ± SEM, n ≥ 3; read-out: Ki
Method: Fluorescence polarization (FP). FP assay was employed to determine the binding affinity of peptides in flat bottom black 384-well plates (Corning Life Science) using a Safire2 plate reader (Tecan). […] The fluorescence polarization values were measured using excitation/emission wavelengths of 530/580 nm. The instrumental Z-factor was adjusted to obtain the maximum fluorescence intensity and the G-factor was calibrated to give an initial millipolarization value of 20 mP. […]
Residues, ends and D or L forms follow the SMILES beside them.
METRIC: Ki (nM)
Numeric only. Scale: nM

Output Ki of CC[C@H](C)[C@H](NC(=O)[C@H](Cc1ccc(O)cc1)NC(=O)[C@H](CC(=O)O)NC(=O)[C@H](CC(=O)O)NC(=O)[C@H](CCC(=O)O)NC(C)=O)C(=O)N[C@@H](CC(=O)O)C(=O)N[C@@H](Cc1c[nH]c2ccccc12)C(=O)NCC(=O)N1CCC[C@H]1C(=O)N[C@H](C(=O)N[C@@H](CO)C(=O)N[C@@H](CC(=O)O)C(=O)N[C@@H](CC(=O)O)C(=O)N[C@@H](CC(=O)O)C(N)=O)[C@@H](C)O [Peptide 19] (Ac-EDDYIDWGPTSDDD-NH2) 3.8

* * *

TEST_SYSTEM: Sushi domains (SD1/2) protein
PROTOCOL: Fluorescence polarization (FP) competition assay with AJAP-1probe, calculated Ki
Type: binding
MEASUREMENT_SETUP: Table 16, ncAAs incorporated peptides; read-out: Ki (nM) mean ± SEM
Description: Fluorescence polarization (FP). FP assay was employed to determine the binding affinity of peptides in flat bottom black 384-well plates (Corning Life Science) using a Safire2 plate reader (Tecan). […] The fluorescence polarization values were measured using excitation/emission wavelengths of 530/580 nm. The instrumental Z-factor was adjusted to obtain the maximum fluorescence intensity and the G-factor was calibrated to give an initial millipolarization value of 20 mP. […]
Non-standard residues stand in square brackets, D forms with d. Residues, ends and D or L forms follow the SMILES beside them. 1Nal = N[C@@H](Cc1cccc2ccccc12)C(=O)O; Cya = N[C@@H](CS(=O)(=O)O)C(=O)O
METRIC: Ki (nM)
Numeric only. Scale: nM

Consider the compound CC(=O)N[C@@H](CCC(=O)O)C(=O)N[C@@H](CC(=O)O)C(=O)N[C@@H](CC(=O)O)C(=O)N[C@@H](CO)C(=O)N[C@@H](Cc1cccc2ccccc12)C(=O)N[C@H](C(=O)N[C@@H](Cc1c[nH]c2ccccc12)C(=O)N[C@@H](Cc1c[nH]c2ccccc12)C(=O)NCC(=O)NCC(=O)N[C@@H](C)C(=O)N[C@@H](CC(=O)O)C(=O)N[C@H](C(=O)N[C@@H](CC(=O)O)C(N)=O)[C@@H](C)O)C(C)C (Ac-EDDS[1Nal]VWWGGADTD-NH2) tested on Sushi domains (SD1/2) protein; state its Ki. 69

Consider the compound CC[C@H](C)[C@H](NC(=O)[C@H](Cc1ccccc1)NC(=O)[C@H](CCC(=O)O)NC(=O)[C@@H](NC(=O)[C@H](CCC(=O)O)NC(C)=O)[C@@H](C)O)C(=O)N[C@@H](CS(=O)(=O)O)C(=O)N[C@@H](Cc1c[nH]c2ccccc12)C(=O)NCC(=O)N1CCC[C@H]1C(=O)N[C@H](C(=O)NCC(=O)N[C@@H](CC(=O)O)C(=O)N[C@@H](CCC(=O)O)C(=O)N[C@@H](CC(=O)O)C(N)=O)[C@@H](C)O [ETEFI(Cya)WGPTGDED, Ac-ETEFI(Cya)WGPTGDED-NH2] (Ac-ETEFI[Cya]WGPTGDED-NH2) tested on Sushi domains (SD1/2) protein; state its Ki. 12
